B1: CPEB3 Ribozyme (parent)
chain: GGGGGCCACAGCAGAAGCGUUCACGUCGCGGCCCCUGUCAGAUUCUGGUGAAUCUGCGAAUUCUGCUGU

Variants of: B1
run.description: self-cleavage, relative activity (ratio to wild type); higher = more cleavage; co-transcriptional
Decide using self-cleavage: a value greater than or equal to 0.2 is true (1), a smaller one is false (0).

Q: Check the entry U44C G58U : does self-cleavage equal or exceed 0.2?
Ans: true (1)
